biological target: Cdk2(2-298) (Homo sapiens); construct: Biotinylated N-terminal avi-tagged Cdk2(2-298) or Cdk1(1-297) was immobilized; experiment: Surface Plasmon Resonance (SPR), Biacore 8K, compound interaction with immobilized kinase; conditions: biotinylated N-terminal avi-tagged protein on Chip SA, single-cycle kinetics (SCK, "S") mode, 1% DMSO, pH 7.5, read-out: Activity rating* (KD)
pKd: −log10 of the molar value.
pKd values for the compounds below.
Observed Property: pKd

N[C@H]1CC[C@H](Nc2nccc(-c3cccnc3Oc3ccc(NS(=O)(=O)c4ccccc4Cl)cc3)n2)CC1	7.00 to 7.96
O=S(=O)(Nc1ccc(Oc2nccnc2-c2ccnc(N[C@H]3CCCNC3)n2)c(F)c1)c1ccccc1Cl	7.00 to 7.96
N[C@H]1CC[C@H](Nc2nccc(-c3cccnc3Oc3ccc(NS(=O)(=O)c4cccc5ccccc45)cc3F)n2)CC1	7.00 to 7.96
O=S(=O)(Nc1ccc(Oc2ncccc2-c2ccnc(N[C@H]3CCCNC3)n2)cc1)c1ccccc1Cl	7.00 to 7.96
N[C@H]1CC[C@H](Nc2nccc(-c3nccnc3Oc3ccc(NS(=O)(=O)c4ccccc4Cl)cc3F)n2)CC1	6.00 to 7.00
O=S(=O)(Nc1ccc(Oc2ncsc2-c2ccnc(N[C@H]3CCCNC3)n2)c(F)c1)c1ccccc1Cl	≥ 8.00

The reported numbers originate from patent US20260272925A1.
